# measuredTarget: T1, Soluble recombinant human CD47-Fc (R&D Systems) (human, UniProt Q08722 19-139)
# T1 construct: Bought reagent; also called rhCD47; human CD47 (plate-coated); not shown: Fc part of the bought fusion protein
# assayDetails: saturating ELISA on plates coated with human CD47; column head 'Average EC50 (nM)'
Items are presented alongside their recorded pEC50.
The quantity pEC50 is defined as the negative base-10 logarithm of the molar concentration.

Some entries whose results are on file:
{"binder": "hB6H12.4 (antibody, V domains shown, also called hvH1/hvK4; antibody 4 (bin A)) VH: EVQLLESGGGLVQPGGSLRLSCAASGFTFSGYGMSWVRQAPGKRLEWVATITSGGTYTYYPDSVKGRFTISRDNSKNTLYLQMNSLRAEDTAIYFCARSLAGNAMDYWGQGTLVTVSS VL: DIQMTQSPSSLSASVGDRVTLTCRASQTISNYLAWYQQKPGKVPKLLIKFASTLQSGVPSRFSGSGSGSDFTLTISSLQPEDVATYYCQNGHGFPRTFGQGTKLEIKR", "obsValue": 7.62}
{"binder": "hB6H12.1 (antibody, V domains shown, also called hvH1/hvK1; antibody 1 (bin A)) VH: EVQLLESGGGLVQPGGSLRLSCAASGFTFSGYGMSWVRQAPGKRLEWVATITSGGTYTYYPDSVKGRFTISRDNSKNTLYLQMNSLRAEDTAIYFCARSLAGNAMDYWGQGTLVTVSS VL: EIVMTQSPDFQSVTPKEKVTLTCRASQTISDYLHWYQQKPDQSPKLLIKFASQSISGVPSRFSGSGSGTDFTLTINSLEAEDAAVYYCQNGHGFPRTFGQGTKLEIKR", "obsValue": 7.52}

We next turn to a different binder, shown below.
For this binder ( hB6H12.2 (antibody, V domains shown, also called hvH1/hvK2; antibody 2 (bin A)) VH: EVQLLESGGGLVQPGGSLRLSCAASGFTFSGYGMSWVRQAPGKRLEWVATITSGGTYTYYPDSVKGRFTISRDNSKNTLYLQMNSLRAEDTAIYFCARSLAGNAMDYWGQGTLVTVSS VL: EIVMTQSPDFQSVTPKEKVTLTCRASQTISDYLHWYQQKPDQSPKLLIKFASQSISGVPSRFSGSGSGTDFTLTINSLEAEDAATYYCQNGHGFPRTFGQGTKLEIKR ), measured pEC50 is 7.52
